# assay.target: T1, C57BL/6 mouse SIRP-α D1 domain (mouse (C57BL/6 strain), UniProt P97797 32-148)
# T1 sequence: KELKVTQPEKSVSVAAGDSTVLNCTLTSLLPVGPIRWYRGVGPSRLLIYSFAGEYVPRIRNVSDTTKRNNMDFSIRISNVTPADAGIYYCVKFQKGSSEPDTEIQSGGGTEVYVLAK
# assay.summary: SPR, Langmuir fit
Rule: koff below 0.001 s⁻¹ gives t, anything at or above gives f.

Problem: Lab note: confirm whether the reported koff for this binder is below 0.001 s⁻¹, equality not counting. binder: S206 (scFv, V domains shown) VH: DVQLVESGGAVVRPGETLRLSCTASGFTFSSYAMSWVRQAPGKGLEWVSGISASGSDTYYADSVKGRSTISRDNSKNTLYLRMSSLTAEDTAVYYCARETWNHLFDYWGLGTLVTLSS VL: ALTQPASVSANPGETVKITCSGGGTSSYYGWYQQKSPGSAPVTLIHSDDKRPSDIPSRFSGSASGSTATLTITGVQAEDEAVYYCGGYDYTTYVNTFGAGTTLTVL
Result: f

Problem: Lab note: confirm whether the reported koff for this binder is below 0.001 s⁻¹, equality not counting. binder: S69 (scFv, V domains shown, also called clone 69) VH: DLQLVESGGGVVRPGESLRLSCAASGFTFSSYAMSWVRQAPGKGLEWLAGISAGGSDTYYIDSVKGRFTISRDNSKNSLYLQMNSLTAEDTAVYYCARETWNHLFDYWGLGTLVTVSS VL: ALTQPASVSANPGETVKIICSGGDYYSTYYGWYQQKSPGSAPVTVIHSDDKRPSDIPSRFSGSASGSAATLTITGVRVEDEAVYFCGAYDGRTYINTFGAGTTLTVL
Result: t

Problem: Lab note: confirm whether the reported koff for this binder is below 0.001 s⁻¹, equality not counting. binder: S17 (scFv, V domains shown, also called clone 17) VH: DVQLVESGGAVVRPGESLRLSCAASGFTFSSYAMSWVRQAPGKGLEWLAGISAGGSDTYYIDSVKGRFTISRDNSENSLYLQMNSLTAEDTAVYYCARETWNHLFDYWGLGTLVTVSS VL: ALTQPASVSANPGETVKITCSGGDWYSTYYGWYQQKSPGSAPVTVIHSDDKRPSDIPSRFSGSASGSAATLTITGVRVEDEAVYYCAGYDGRTYINTFGAGTTLTVL
Result: f

Problem: Lab note: confirm whether the reported koff for this binder is below 0.001 s⁻¹, equality not counting. binder: S30 (scFv, V domains shown, also called clone 30) VH: DVQLVESGGGVVRPGESLRLSCEASGFTFSSDAMSWVRQAPGKGLEWVSGISSGSSTYYGGSVKGRFTISRDNSKNTLYLQMNSLTAEDTAVYYCARETWNHLFDYWGLGTLVTVSS VL: ALTQPASVSASPGETVEITCSGGSDSSYYYGWYQQKSPGSAPVTVIYSDNKRPSNIPSRFSGSASGSTATLTITGVRVEDEAVYYCGGYDYSTYTNPFGAGTTLTVL
Result: f
